conditions: pH 7.4
Counter-ions that a name gives are not always drawn.
Parameter measured: Solubility grading
Lab note: record just the number, no unit beside it.

Worked cases, Solubility grading given:
CCNC(=O)[C@@H]1CCCN1C(=O)[C@H](CCCNC(=N)N)NC(=O)[C@H](CC(C)C)NC(=O)[C@@H](CC(C)C)NC(=O)[C@H](Cc1ccc(O)cc1)NC(=O)[C@H](CO)NC(=O)[C@H](Cc1c[nH]c2ccccc12)NC(=O)[C@H](Cc1c[nH]cn1)NC(=O)[C@@H]1CCC(=O)N1 [Leuprorelin acetate] :: 2
CCNC(=O)[C@@H]1CCCN1C(=O)[C@H](CCCNC(=N)N)NC(=O)[C@H](CC(C)C)NC(=O)[C@@H](CC(C)C)NC(=O)[C@H](Cc1ccc(O)cc1)NC(=O)[C@H](CO)NC(=O)[C@H](Cc1c[nH]c2ccccc12)NC(=O)[C@H](Cc1c[nH]cn1)NC(=O)[C@@H]1CCC(=O)N1 [Leuprorelin TFA] :: 1
CCNC(=O)[C@@H]1CCCN1C(=O)[C@H](CCCNC(=N)N)NC(=O)[C@H](CC(C)C)NC(=O)[C@@H](Cc1cn(Cc2ccccc2)cn1)NC(=O)[C@H](Cc1ccc(O)cc1)NC(=O)[C@H](CO)NC(=O)[C@H](Cc1c[nH]c2ccccc12)NC(=O)[C@H](Cc1cnc[nH]1)NC(=O)[C@@H]1CCC(=O)N1 [Histrelin TFA] :: 2

Turning now to a further record.
Supply Solubility grading value. Item: CCNC(=O)[C@@H]1CCCN1C(=O)[C@H](CCCNC(=N)N)NC(=O)[C@H](CC(C)C)NC(=O)[C@@H](Cc1cn(Cc2ccccc2)cn1)NC(=O)[C@H](Cc1ccc(O)cc1)NC(=O)[C@H](CO)NC(=O)[C@H](Cc1c[nH]c2ccccc12)NC(=O)[C@H](Cc1cnc[nH]1)NC(=O)[C@@H]1CCC(=O)N1 [Histrelin acetate]
4

---

test: Stability in aqueous media (PBS pH 7.4); type: physicochemical; set-up: unit not given here; details: phosphate buffer solution (PBS); PBS pH 7.4, 37° C., samples at T=0, 4, 24, 96 h; read-out: Stability grading (t1/2)
Non-standard residues stand in square brackets, D forms with d. Residues, ends and D or L forms follow the SMILES beside them. dHis(τ-Bn) = N[C@H](Cc1cn(Cc2ccccc2)cn1)C(=O)O; pGlu = O=C1CC[C@@H](C(=O)O)N1
Parameter measured: half-life at 0.2 mg/ml

Worked cases, half-life at 0.2 mg/ml given:
CC(C)C[C@H](NC(=O)[C@@H](Cc1c[nH]c2ccccc12)NC(=O)[C@H](Cc1ccc(O)cc1)NC(=O)[C@H](CO)NC(=O)[C@H](Cc1c[nH]c2ccccc12)NC(=O)[C@H](Cc1c[nH]cn1)NC(=O)[C@@H]1CCC(=O)N1)C(=O)N[C@@H](Cc1ccc(O)cc1)C(=O)N1CCC[C@H]1C(=O)NCC(N)=O [Compound 14] ([pGlu]HWSY[dW]LYPG-NH2) :: > 96
N=C(N)NCCC[C@H](NC(=O)[C@H](Cc1c[nH]c2ccccc12)NC(=O)[C@@H](Cc1c[nH]c2ccccc12)NC(=O)[C@H](Cc1c[nH]cn1)NC(=O)[C@H](CO)NC(=O)[C@H](Cc1c[nH]c2ccccc12)NC(=O)[C@H](Cc1c[nH]cn1)NC(=O)[C@@H]1CCC(=O)N1)C(=O)N1CCC[C@H]1C(=O)NCC(N)=O :: > 96
CCNC(=O)[C@@H]1CCCN1C(=O)[C@H](CCCNC(=N)N)NC(=O)[C@H](Cc1c[nH]c2ccccc12)NC(=O)[C@@H](CC(C)C)NC(=O)[C@H](Cc1c[nH]cn1)NC(=O)[C@H](CO)NC(=O)[C@H](Cc1c[nH]c2ccccc12)NC(=O)[C@H](Cc1c[nH]cn1)NC(=O)[C@@H]1CCC(=O)N1 [Compound 47] ([pGlu]HWSH[dL]WRP-NHEt) :: > 96

Supply half-life at 0.2 mg/ml value. Item: CCNC(=O)[C@@H]1CCCN1C(=O)[C@H](Cc1ccc(O)cc1)NC(=O)[C@H](CC(C)C)NC(=O)[C@@H](Cc1cn(Cc2ccccc2)cn1)NC(=O)[C@H](Cc1c[nH]cn1)NC(=O)[C@H](CO)NC(=O)[C@H](Cc1c[nH]c2ccccc12)NC(=O)[C@H](Cc1c[nH]cn1)NC(=O)[C@@H]1CCC(=O)N1 [Compound 61] ([pGlu]HWSH[dHis(τ-Bn)]LYP-NHEt)
> 96

Supply half-life at 0.2 mg/ml value. Item: CCNC(=O)[C@@H]1CCCN1C(=O)[C@H](Cc1ccc(O)cc1)NC(=O)[C@H](CC(C)C)NC(=O)[C@@H](CC(C)C)NC(=O)[C@H](Cc1c[nH]cn1)NC(=O)[C@H](CO)NC(=O)[C@H](Cc1c[nH]c2ccccc12)NC(=O)[C@H](Cc1c[nH]cn1)NC(=O)[C@@H]1CCC(=O)N1 [Compound 48] ([pGlu]HWSH[dL]LYP-NHEt)
> 96

Supply half-life at 0.2 mg/ml value. Item: CCNC(=O)[C@@H]1CCCN1C(=O)[C@H](Cc1ccc(O)cc1)NC(=O)[C@H](Cc1c[nH]c2ccccc12)NC(=O)[C@@H](Cc1cn(Cc2ccccc2)cn1)NC(=O)[C@H](Cc1c[nH]cn1)NC(=O)[C@H](CO)NC(=O)[C@H](Cc1c[nH]c2ccccc12)NC(=O)[C@H](Cc1c[nH]cn1)NC(=O)[C@@H]1CCC(=O)N1 [Compound 63] ([pGlu]HWSH[dHis(τ-Bn)]WYP-NHEt)
< 96
